Values compiled from paper PMC10499821.

- tgt: Nsp8
pKd: −log10 of the molar value. Where no end group is shown, it is not given here. The star is where a group is joined. FITC = O=C1OC2(c3ccc(O)cc3Oc3cc(O)ccc32)c2ccc(NC(=S)*)cc21
quantity kind: pKd

Param item = {FITC}-AVWTQEHDAILEHFAQ [FITC-DNAH2 92-107] ; retrieve measured pKd.
~3.72
